Recorded values, source ChEMBL document CHEMBL1158614.

For Dipeptidyl peptidase 4 (Homo sapiens, UniProt P27487), measured pIC50 is reported for the entries below.
One number for each entry, as −log10 of the molar value.

smiles record | study system | metric name | result value
N#C[C@@H]1CCCN1C(=O)CN[C@@H]1C[C@@H]2CN(C(=O)CO)C[C@@H]2C1 | Dipeptidyl peptidase 4 (Homo sapiens, UniProt P27487) | pIC50 | 7.85

Now consider a different compound.
Using Dipeptidyl peptidase 4 (Homo sapiens, UniProt P27487) as the test system, report measured pIC50 of `COC(=O)N1C[C@H]2C[C@@H](NCC(=O)N3CCC[C@H]3C#N)C[C@H]2C1` .
7.62
